B1: LINE1-mini (parent)
chain: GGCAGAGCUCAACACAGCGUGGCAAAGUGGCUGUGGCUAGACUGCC

variants of: B1; assay: self-cleavage, relative activity (ratio to wild type); higher = more cleavage; in vitro, sequencing; the parent is a self-cleaving ribozyme
quantity kind: self-cleavage
Enter the number alone.

# self-cleavage (variant: A14G G17U ) is 0.09
